molecular target: human Melanin concentrating hormone receptor 1 (hMCHr1) (Homo sapiens, UniProt Q99705); construct: purchased Euroscreen; host or cells: CHO-K1; test: MCH1 receptor radioligand binding (125I-MCH, CHO-K1 membranes); settings: 125I-MCH displacement, membranes from CHO-K1 cells expressing hMCHr1; read-out: IC50 in human MCHr1 binding assay
Sequence (Q99705 whole entry): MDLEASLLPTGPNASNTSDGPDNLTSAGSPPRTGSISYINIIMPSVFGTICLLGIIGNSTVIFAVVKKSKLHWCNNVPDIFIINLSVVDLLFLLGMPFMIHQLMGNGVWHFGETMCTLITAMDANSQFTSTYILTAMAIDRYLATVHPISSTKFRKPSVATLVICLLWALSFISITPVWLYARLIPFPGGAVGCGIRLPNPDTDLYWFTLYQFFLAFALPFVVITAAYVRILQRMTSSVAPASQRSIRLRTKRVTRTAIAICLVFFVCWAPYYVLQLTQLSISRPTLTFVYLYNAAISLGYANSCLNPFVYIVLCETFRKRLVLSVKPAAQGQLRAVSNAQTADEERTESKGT
ASSAY_METRIC: IC50 (nM)

1) O=C(CC1CCN(Cc2ccn(-c3ccc(C(F)(F)F)cc3)c2)CC1)NCc1ccc(F)c(F)c1
12

---

Molecular target: recombinant hMCHr1 (Homo sapiens, UniProt Q99705)
Sequence (Q99705 whole entry): as above
Assay: MCHr1 functional assay ([35S]GTPγS binding, membranes)
Settings: ED80 concentration of MCH, antagonist mode
Method: Membranes expressing recombinant hMCHr1 ([…] protein; Euroscreen) were prepared in assay buffer (50 mM HEPES, 100 mM NaCl, 5 mM MgCl2, 1 mM EDTA, 200 μM DTT, 20 μM GDP (Sigma) containing 0.1 μg/ml BSA, pH7.4) before assay. […] The reaction was started by addition of 0.056 nM [^35S]GTPγS (Specific activity >1000 Ci/mmol; Amersham) and an ED80 concentration of MCH (determined for each membrane and each MCH batch). Non-specific binding was determined using 20 μM non-radiolabelled GTPγS. […]
ASSAY_METRIC: IC50

1) O=C(CC1CCN(Cc2ccn(-c3ccc(C(F)(F)F)cc3)c2)CC1)NCc1ccc(F)c(F)c1
112 nM
2) O=C(NC1CCN(Cc2ccn(-c3ccc(C(F)(F)F)cc3)c2)CC1)C(c1ccccc1)c1ccccc1
42 nM
